This listing pairs compounds with measured logP.

[
  {
    "compound": "Nc1nc(N)nc(-c2cc(F)ccc2Cl)n1",
    "logP": 1.38
  },
  {
    "compound": "FC(F)(F)COC1C(Cl)C(Cl)C(Cl)C(Cl)C1Cl (stereo not drawn)",
    "logP": 4.15
  },
  {
    "compound": "CS(=O)(=O)c1cnc2ccccc2n1",
    "logP": 0.79
  },
  {
    "compound": "COC(=O)C1CCCC(NC(=O)N(CCCl)N=O)C1 (stereo not drawn)",
    "logP": 1.89
  },
  {
    "compound": "Nc1ccc(C(=O)Oc2ccc(Cl)cc2Cl)c(O)c1",
    "logP": 4.27
  },
  {
    "compound": "CCN1CCCCCC1=O",
    "logP": 0.65
  },
  {
    "compound": "CCSc1c(OC)cc(Cc2cnc(N)nc2N)cc1OC",
    "logP": 1.79
  },
  {
    "compound": "O=NN(CCCl)C(=O)NC1CSCSC1",
    "logP": 2.08
  }
]

* * *

This listing pairs compounds with measured logP.

[
  {
    "compound": "Cc1cccc(NC(=O)CN2CCCCC2)c1",
    "logP": 2.97
  },
  {
    "compound": "CN(C)c1ccc(Cc2cnc(N)nc2N)cc1",
    "logP": 1.82
  },
  {
    "compound": "CC1CN(C)C(=Nc2ncc([N+](=O)[O-])s2)N1 (centres undefined)",
    "logP": 1.95
  },
  {
    "compound": "CCCCN(SN(C)C(=O)ON=C(C)SC)C(=O)c1ccccc1",
    "logP": 3.4
  }
]

* * *

Answer label 0 if logP is under 0.8, and label 1 if it is 0.8 or more.

[
  {
    "compound": "COP(=O)(OC)Oc1ccc([N+](=O)[O-])c(Cl)c1",
    "class_name": "label 1"
  },
  {
    "compound": "COc1cc(-n2[nH]c(C)cc2=O)nc(C)n1",
    "class_name": "label 0"
  },
  {
    "compound": "Cc1ccccc1-c1nc(N)nc(N)n1",
    "class_name": "label 1"
  },
  {
    "compound": "O=NN(CCF)C(=O)NCCCl",
    "class_name": "label 1"
  },
  {
    "compound": "CCCC(=O)N(C)SN(C)C(=O)ON=C(C)SC",
    "class_name": "label 1"
  },
  {
    "compound": "COC1OCC(O)C(NC(=O)N(C)N=O)C1O (stereo unspecified)",
    "class_name": "label 0"
  },
  {
    "compound": "COc1cc(Cc2cnc(N)nc2N)cc(OCc2ccccc2)c1OC",
    "class_name": "label 1"
  },
  {
    "compound": "Nc1nc(N)nc(-c2cc(F)ccc2Br)n1",
    "class_name": "label 1"
  },
  {
    "compound": "CNC(=O)c1ccc(S(N)(=O)=O)cc1",
    "class_name": "label 0"
  },
  {
    "compound": "COC(=O)C(C#N)=NNc1ccc(Cl)cc1C(F)(F)F",
    "class_name": "label 1"
  },
  {
    "compound": "CNC(=O)Oc1cc(C)c(Cl)cc1C",
    "class_name": "label 1"
  },
  {
    "compound": "[N-]=[N+]=CC(=O)NCC(=O)NCCO",
    "class_name": "label 0"
  },
  {
    "compound": "Clc1cc(Cl)c(N=C2NCCN2)c(Cl)c1",
    "class_name": "label 1"
  },
  {
    "compound": "NNC(=O)c1ccccc1I",
    "class_name": "label 0"
  },
  {
    "compound": "C#CCOn1c(=O)[nH]c(C)c(Br)c1=O",
    "class_name": "label 0"
  }
]
